biological target: CFTR in F508del/F508del primary CF hBE cells (Homo sapiens, UniProt P13569, DEL508-508); construct: Primary cystic fibrosis human bronchial epithelial (CF hBE) cells were expanded and cultured; endogenous in cells; experiment: Ussing chamber electrophysiology assay of CFTR potentiation in F508del/F508del CF bronchial epithelial cells (27° C.)
Sequence (P13569 with tags, fused parts or gaps DEL508-508): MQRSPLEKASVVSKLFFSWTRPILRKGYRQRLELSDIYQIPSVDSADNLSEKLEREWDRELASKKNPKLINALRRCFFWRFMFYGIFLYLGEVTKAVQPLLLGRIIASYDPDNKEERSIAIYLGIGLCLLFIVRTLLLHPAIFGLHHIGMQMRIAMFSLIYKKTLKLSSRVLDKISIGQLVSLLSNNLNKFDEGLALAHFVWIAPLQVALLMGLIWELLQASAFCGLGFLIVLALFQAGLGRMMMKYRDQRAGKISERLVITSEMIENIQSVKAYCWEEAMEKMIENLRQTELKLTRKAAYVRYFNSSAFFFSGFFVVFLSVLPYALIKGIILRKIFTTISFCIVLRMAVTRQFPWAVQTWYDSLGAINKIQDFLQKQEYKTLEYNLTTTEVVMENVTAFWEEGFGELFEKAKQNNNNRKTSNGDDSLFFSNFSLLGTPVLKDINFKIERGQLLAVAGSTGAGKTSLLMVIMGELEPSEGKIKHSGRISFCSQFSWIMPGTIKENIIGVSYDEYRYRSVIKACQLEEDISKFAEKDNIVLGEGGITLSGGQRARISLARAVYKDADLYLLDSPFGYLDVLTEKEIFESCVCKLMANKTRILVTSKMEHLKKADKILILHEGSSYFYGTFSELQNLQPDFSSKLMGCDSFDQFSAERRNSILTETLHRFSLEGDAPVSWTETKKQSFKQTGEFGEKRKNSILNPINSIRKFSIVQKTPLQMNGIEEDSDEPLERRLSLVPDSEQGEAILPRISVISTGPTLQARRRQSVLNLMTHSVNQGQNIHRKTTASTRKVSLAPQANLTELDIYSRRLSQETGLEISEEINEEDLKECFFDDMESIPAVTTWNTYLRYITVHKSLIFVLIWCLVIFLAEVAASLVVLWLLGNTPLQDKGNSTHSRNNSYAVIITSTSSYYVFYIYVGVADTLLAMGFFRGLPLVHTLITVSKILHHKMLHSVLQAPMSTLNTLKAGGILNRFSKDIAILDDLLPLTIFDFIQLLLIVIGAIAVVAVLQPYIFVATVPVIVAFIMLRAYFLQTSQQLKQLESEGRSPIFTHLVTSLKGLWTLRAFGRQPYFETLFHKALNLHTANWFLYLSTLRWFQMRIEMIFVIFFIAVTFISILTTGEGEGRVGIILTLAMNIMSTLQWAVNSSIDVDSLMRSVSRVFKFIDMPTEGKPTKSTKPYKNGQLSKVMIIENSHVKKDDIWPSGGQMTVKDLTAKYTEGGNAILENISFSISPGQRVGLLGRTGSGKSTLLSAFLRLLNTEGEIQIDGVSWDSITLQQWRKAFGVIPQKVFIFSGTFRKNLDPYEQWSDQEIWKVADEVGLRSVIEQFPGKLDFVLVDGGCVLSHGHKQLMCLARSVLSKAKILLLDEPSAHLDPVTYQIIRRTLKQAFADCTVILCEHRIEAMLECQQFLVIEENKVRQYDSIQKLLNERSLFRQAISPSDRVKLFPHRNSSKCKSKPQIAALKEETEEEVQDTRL
pEC50: −log10 of the molar value.
MEASURED_PARAMETER: pEC50

Below, 5 molecules whose answers are already recorded.
Given CC(c1cn(-c2ccccc2F)nn1)n1cc(-c2ccc(OC(F)F)cc2)c2c(N)ncnc21 (stereo not shown) [Example 89] , state its recorded pEC50.
7.44

Given CCC(c1cn(-c2ccc(F)cc2)nn1)n1cc(-c2cncnc2OC)c2c(N)ncnc21 (single isomer, unassigned; enantiomer 2) [Example 150] , state its recorded pEC50.
6.03

Given CC(c1cn(-c2ccccc2F)nn1)n1cc(-c2cnc(C(F)(F)F)nc2)c2c(N)ncnc21 (stereo not shown) [Example 216] , state its recorded pEC50.
7.23

Given Nc1ncnc2c1c(-c1ccc3[nH]ccc3c1)cn2Cc1cn(-c2ccccc2F)nn1 [Example 81] , state its recorded pEC50.
6.47

Given COc1cc(C#N)cc(-c2cn(Cc3cn(-c4ccccc4F)nn3)c3ncnc(N)c23)c1 [Example 72] , state its recorded pEC50.
7.24

I = CCC(c1cn(-c2ccc(F)cc2F)nn1)n1cc(-c2cncnc2OC)c2c(N)ncnc21 (single isomer, unassigned; enantiomer 1) [Example 159]
II = CCC(c1cn(-c2ccccc2)nn1)n1cc(-c2ccc(OC)nc2)c2c(N)ncnc21 (single isomer, unassigned; enantiomer 2) [Example 126]
Please tell me which of the two, I or II , has the higher reported pEC50 value. Field: selected label. Fill in the label of the entry you choose.
II

====

molecular target: CFTR in F508del/F508del primary CF hBE cells (Homo sapiens, UniProt P13569, DEL508-508); construct: Primary cystic fibrosis human bronchial epithelial (CF hBE) cells were expanded and cultured; endogenous in cells; test: Ussing chamber electrophysiology assay of CFTR potentiation in F508del/F508del CF bronchial epithelial cells (27° C.)
MEASURED_PARAMETER: EC50 (µM)

Below, 5 compounds whose answers are already recorded.
Given CC(c1cn(-c2ccc(F)cc2F)nn1)n1c(C#N)c(-c2ccc(OC3CC3)nc2)c2c(N)ncnc21 (single isomer, unassigned; enantiomer 1) [Example 320] , state its recorded EC50.
0.0462

Given CCC(c1nnn(-c2ccc(F)cc2F)c1C)n1cc(-c2cnc(C(F)(F)F)nc2)c2c(N)ncnc21 (single isomer, unassigned) , state its recorded EC50.
0.0102

Given COc1cccnc1-c1cn(Cc2cn(-c3ccccc3F)nn2)c2ncnc(N)c12 , state its recorded EC50.
0.238

Given COc1ncccc1-c1cn(Cc2cnn(-c3c(F)cccc3F)c2)c2ncnc(N)c12 , state its recorded EC50.
0.176

Given Nc1ncnc2c1c(C1CCCO1)cn2Cc1cn(-c2ccccc2F)nn1 (stereo not shown) , state its recorded EC50.
2.12

a = Cc1c(C(C)n2cc(-c3cnc(C(F)(F)F)nc3)c3c(N)ncnc32)nnn1-c1ccccc1F (single isomer, unassigned; enantiomer 1)
b = CCC(c1cn(-c2cccc(F)c2F)nn1)n1cc(-c2cc(F)cnc2OC)c2c(N)ncnc21 (single isomer, unassigned; enantiomer 1) [Example 169]
Please tell me which of the two, a or b , has the higher reported EC50 value. Field: selected label. Fill in the label of the entry you choose.
a
(a: 0.0231 µM, b: 0.0049 µM)

All values here come from patent US12612409B2.
